- study system: D(3) dopamine receptor (Homo sapiens, UniProt P35462)
- Sequence (P35462 whole entry): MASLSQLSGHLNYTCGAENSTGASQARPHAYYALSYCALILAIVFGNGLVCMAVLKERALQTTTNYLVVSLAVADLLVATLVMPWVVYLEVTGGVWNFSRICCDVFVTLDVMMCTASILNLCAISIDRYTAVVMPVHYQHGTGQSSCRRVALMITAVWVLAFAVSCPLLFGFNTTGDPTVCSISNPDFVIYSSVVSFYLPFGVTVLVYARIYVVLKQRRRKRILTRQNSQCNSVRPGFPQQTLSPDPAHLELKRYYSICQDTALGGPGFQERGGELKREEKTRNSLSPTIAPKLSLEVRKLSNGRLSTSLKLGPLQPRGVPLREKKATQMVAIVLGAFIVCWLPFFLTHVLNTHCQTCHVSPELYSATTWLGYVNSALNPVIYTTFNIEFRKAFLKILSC
- assay info: Displacement of [3H]-Spiperone from human recombinant dopamine D3 receptor expressed in CHO cells at 10 uM relative to control
- Format: cell-based
assay endpoint: inhibition (%)

INSERT INTO measurements (query_smiles, assay_endpoint, reading) VALUES
  ('COc1ccc(CN2CCO[C@H](COc3ccc(F)cc3)C2)cc1', 'inhibition', 76),
  ('Fc1ccc(OC[C@@H]2CN(Cc3ccc(Cl)cc3)CCO2)cc1', 'inhibition', 51),
  ('COc1ccc2c(CN3CCO[C@H](COc4ccccc4)C3)c[nH]c2c1', 'inhibition', 70),
  ('Clc1ccc2c(CN3CCO[C@H](COc4ccccc4)C3)c[nH]c2c1', 'inhibition', 70);
